Biological target: human RNA polymerase (Hela cell nucleus extract) (Homo sapiens, UniProt P24928+P30876)
Assay: Human RNA polymerase inhibition test
Settings: 30° C., 1 hour, read-out: 50% inhibition concentration
pIC50: −log10 of the molar value.
Measurement Kind: pIC50

{"columns": ["Compound", "pIC50"],
 "data": [
  ["NC(=O)c1nccn([C@@H]2O[C@H](COP(=O)(O)OP(=O)(O)OP(=O)(O)O)[C@@H](O)[C@H]2O)c1=O [Reference Example 22]", "< 3.70"]
]}

Proceed to the following item.
Given NC(=O)c1nccn([C@@H]2O[C@H](COP(=O)(O)OP(=O)(O)OP(=O)(O)O)C[C@H]2O)c1=O [Reference Example 25] , state its recorded pIC50.
< 3.70

* * *

Target: Influenza virus polymerase (crude enzyme from virus particles) (Influenza A virus)
Decide using IC50 alone. Strictly below 0.3 µM: Met. Equal to or above 0.3 µM: Not met.

Would you please look over these solved cases?
{"columns": ["Compound", "Discrete Label"],
 "data": [
  ["NC(=O)c1nc(F)cn([C@@H]2O[C@H](COP(=O)(O)OP(=O)(O)OP(=O)(O)O)[C@@H](O)[C@H]2O)c1=O [Reference Example 16]", "Met"],
  ["NC(=O)c1nccn([C@@H]2O[C@H](COP(=O)(O)OP(=O)(O)OP(=O)(O)O)[C@@H](O)[C@H]2O)c1=O [Reference Example 22]", "Met"],
  ["NC(=O)c1nccn([C@@H]2O[C@H](COP(=O)(O)OP(=O)(O)OP(=O)(O)O)C[C@H]2O)c1=O [Reference Example 25]", "Not met"],
  ["NC(=O)c1nc(Cl)cn([C@@H]2O[C@H](COP(=O)(O)OP(=O)(O)OP(=O)(O)O)[C@@H](O)[C@H]2O)c1=O [Reference Example 17]", "Not met"]
]}

Attention now turns to another entry.
Please indicate whether the reported IC50 of Cc1cn([C@@H]2O[C@H](COP(=O)(O)OP(=O)(O)OP(=O)(O)O)[C@@H](O)[C@H]2O)c(=O)c(C(N)=O)n1 [Reference Example 23] is strictly below 0.3 µM.
Met

* * *

Biological target: HCV polymerase (NS5B region of hepatitis C virus) (Hepatitis C virus genotype 1a)
Construct: The NS5B region of hepatitis C virus was produced in Escherichia coli; made in house; host or cells: Escherichia coli
Sequence (P27958 2421-3011): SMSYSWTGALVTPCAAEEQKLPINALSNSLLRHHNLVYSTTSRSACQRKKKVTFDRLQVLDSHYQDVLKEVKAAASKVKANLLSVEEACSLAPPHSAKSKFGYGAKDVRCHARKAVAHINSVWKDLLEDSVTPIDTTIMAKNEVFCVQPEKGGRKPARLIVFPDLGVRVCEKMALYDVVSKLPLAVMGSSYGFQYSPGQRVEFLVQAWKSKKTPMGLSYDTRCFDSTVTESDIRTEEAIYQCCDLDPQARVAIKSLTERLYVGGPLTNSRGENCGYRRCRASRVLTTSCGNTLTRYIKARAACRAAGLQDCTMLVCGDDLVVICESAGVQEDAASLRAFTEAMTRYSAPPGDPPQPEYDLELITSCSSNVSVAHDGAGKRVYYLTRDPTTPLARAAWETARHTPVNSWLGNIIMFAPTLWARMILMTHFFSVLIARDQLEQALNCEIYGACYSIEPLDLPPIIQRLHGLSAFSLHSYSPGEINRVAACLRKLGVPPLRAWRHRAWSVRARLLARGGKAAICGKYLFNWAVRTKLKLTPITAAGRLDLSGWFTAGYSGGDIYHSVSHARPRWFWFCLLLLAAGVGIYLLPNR
Assay: Polymerase inhibition test (hepatitis C virus)
Format: biochemical
Details: NS5B produced in Escherichia coli, 30° C., 2 hours; read-out: 50% inhibition concentration
Measurement Kind: pIC50
Reminder that pIC50 means the negative base-10 logarithm of the concentration expressed in mol/L.

Some compounds with known pIC50 results, for comparison:
{"columns": ["Compound", "pIC50"],
 "data": [
  ["NC(=O)c1nc(F)cn([C@@H]2O[C@H](COP(=O)(O)OP(=O)(O)OP(=O)(O)O)[C@@H](O)[C@H]2O)c1=O [Reference Example 16]", 6.12],
  ["NC(=O)c1nccn([C@@H]2O[C@H](COP(=O)(O)OP(=O)(O)OP(=O)(O)O)[C@@H](O)[C@H]2O)c1=O [Reference Example 22]", 7.06],
  ["NC(=O)c1nc(Cl)cn([C@@H]2O[C@H](COP(=O)(O)OP(=O)(O)OP(=O)(O)O)[C@@H](O)[C@H]2O)c1=O [Reference Example 17]", 5.57]
]}

Given NC(=O)c1nccn([C@@H]2O[C@H](COP(=O)(O)OP(=O)(O)OP(=O)(O)O)C[C@H]2O)c1=O [Reference Example 25] , state its recorded pIC50.
5.80

Cited source: patent US20040235761A1
